Reference for the values: patent US20250092065A1

This listing pairs compounds with measured IC50.
System: MYB mRNA
TEST_DESCRIPTION: RT-qPCR splicing assay, MYB mRNA canonical (CJ) and alternative (AJ) junction
Type: cell-based, human
REPORTED_CONDITIONS: Homo sapiens, MYB canonical junction mRNA, RT-qPCR; read-out: MYB CJ (decrease in CJ mRNA levels, IC50)

{"COMPOUND": "CNC(=O)c1nc(-c2cc3cn(C)nc3c(C)c2O)nc2ccc(N3C[C@@H](C)N[C@H](C)C3)cc12 (single isomer, unassigned)", "ASSAY_TARGET": "MYB mRNA", "IC50": "< 100 nM"}
{"COMPOUND": "Cc1nc2c(F)c(O)c(-c3ccc4nc(N5CC[C@H](NC(C)C)C5)ccc4n3)cc2o1 (single isomer, unassigned)", "ASSAY_TARGET": "MYB mRNA", "IC50": "< 100 nM"}
{"COMPOUND": "Cc1cn2cc(-c3ccc4cc(N5CCNCC5)cc(F)c4n3)cc(F)c2n1", "ASSAY_TARGET": "MYB mRNA", "IC50": "< 100 nM"}
{"COMPOUND": "Cc1nc2cc(O)c(-c3ccc4nc(N5CCC(N)C5)ccc4n3)cc2o1 (stereo not shown)", "ASSAY_TARGET": "MYB mRNA", "IC50": "100 to 1000 nM"}
{"COMPOUND": "Cc1nc2cc(O)c(-c3ccc4nc(N5CCN[C@@H](C6CC6)C5)ccc4n3)cc2o1", "ASSAY_TARGET": "MYB mRNA", "IC50": "100 to 1000 nM"}
{"COMPOUND": "Cc1c(O)c(-c2nc(-c3nnc[nH]3)c3cc(N4CCNCC4)ccc3n2)cc2cn(C)nc12", "ASSAY_TARGET": "MYB mRNA", "IC50": "1000 to 10000 nM"}
{"COMPOUND": "Cc1c(O)c(-c2ccc3nc(N4CCC(NC5COC5)C4)ccc3n2)cc2cn(C)nc12 (stereo not shown)", "ASSAY_TARGET": "MYB mRNA", "IC50": "100 to 1000 nM"}
{"COMPOUND": "Cc1c(O)c(-c2ccc3nc(N4CC[C@H](NC5CC5)C4)ncc3n2)cc2cn(C)nc12", "ASSAY_TARGET": "MYB mRNA", "IC50": "100 to 1000 nM"}
{"COMPOUND": "Cn1cc2cc(-c3ccc4nc(N5CC[C@H](NC6COC6)C5)ccc4n3)c(O)cc2n1", "ASSAY_TARGET": "MYB mRNA", "IC50": "100 to 1000 nM"}
{"COMPOUND": "Cn1cc2cc(-c3ccc4nc(N5CCNCC5)ccc4n3)c(O)cc2n1", "ASSAY_TARGET": "MYB mRNA", "IC50": "100 to 1000 nM"}
{"COMPOUND": "Cc1nc2c(C)c(O)c(-c3ccc4nc(N5CCC(NC(C)C)C5)ccc4n3)cc2o1 (stereo not shown)", "ASSAY_TARGET": "MYB mRNA", "IC50": "< 100 nM"}
{"COMPOUND": "Cc1c(O)c(-c2ccc3nc(N4CC[C@H](NC5(C)CC5)C4)ccc3n2)cc2cn(C)nc12", "ASSAY_TARGET": "MYB mRNA", "IC50": "< 100 nM"}
{"COMPOUND": "Cc1nc2c(F)c(O)c(-c3ccc4nc(N5CC[C@H](NCC6CC6)C5)ccc4n3)cc2o1 (single isomer, unassigned)", "ASSAY_TARGET": "MYB mRNA", "IC50": "< 100 nM"}
{"COMPOUND": "Cc1nc2cc(O)c(-c3ccc4nc(N5CCNC(C(C)(C)C)C5)ccc4n3)cc2o1 (stereo not shown)", "ASSAY_TARGET": "MYB mRNA", "IC50": "1000 to 10000 nM"}
{"COMPOUND": "Cc1c(O)c(-c2ncc3cc(N4C[C@H](C)N[C@@H](C)C4)ccc3n2)cc2cn(C)nc12", "ASSAY_TARGET": "MYB mRNA", "IC50": "< 100 nM"}
{"COMPOUND": "Cn1cc2cc(-c3ccc4nc(N5CC[C@H](NC6(C)CC6)C5)ccc4n3)c(O)cc2n1", "ASSAY_TARGET": "MYB mRNA", "IC50": "< 100 nM"}
